Would you mind telling me the reported protein stability index of each entry?
B1: NR2F2 (parent)
chain: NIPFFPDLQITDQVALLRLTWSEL

Variants of: B1
method: protein stability index of a GFP-peptide fusion (GPS, HEK-293T) (PSI 1-6); higher = more stable;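 note: lentivirally expressed fusions sorted by FACS into six bins by GFP to DsRed ratio, PSI derived from sequencing read proportions per bin multiplied by bin number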
test-context: c terminus: a fixed tail appended
One number for each entry.

variant-annotation | protein stability index
Q9C | 2.34

Please report protein stability index for every entry that follows.
1. L8C
2. D7E

result:
1.92
2.4

Please report protein stability index for every entry that follows.
1. D12N
2. D7M
3. P3W
4. L17Q
5. Q13H
6. S22H

result:
1. 2.42
2. 3.45
3. 3.62
4. 1.99
5. 3.09
6. 2.71

Please report protein stability index for every entry that follows.
1. L19M
2. D7W
3. Q9F

result:
1.76
4.12
2.56
